// provenance: patent US20190241654A1

TARGET_ENTITY: CD47 on CCRF-CEM cells (human, UniProt Q08722 19-323)
Sequence (Q08722 19-323): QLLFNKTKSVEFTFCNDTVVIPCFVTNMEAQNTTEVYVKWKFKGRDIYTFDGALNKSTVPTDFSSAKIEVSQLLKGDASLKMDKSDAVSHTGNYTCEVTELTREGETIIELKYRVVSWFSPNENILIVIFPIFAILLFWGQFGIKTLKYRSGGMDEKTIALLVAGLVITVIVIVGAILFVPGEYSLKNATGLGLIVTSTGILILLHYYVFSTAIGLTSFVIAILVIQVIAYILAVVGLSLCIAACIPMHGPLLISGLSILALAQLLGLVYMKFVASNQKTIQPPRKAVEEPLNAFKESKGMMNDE
ASSAY_DETAILS: cell-based or functional assay
OBSERVED_PROPERTY: Phagocytosis EC50 (ug/mL), Donor 1 (µg/mL)
Hi! Could you send only the number? It should be in µg/mL, unit omitted.

## Input Consider the binder Ab356/Ab1129 (HC Ab356, LC Ab1129) anti-CD47 antibody (antibody, V domains shown, FR and CDR L2 variant of AbParental; The label order is HC/LC although the head says 'LC/HC'; r466 is used) VH: QMQLVQSGAEVKKPGSSVKVSCKASGFNIKDYYLHWVRQAPGKGLEWMGWIDPDQGDTEYAQKFQGRVTITRDRSTSTAYMELRSLRAEDTAVYYCNAAYGSSSYPMDYWGQGTTVTVSS VL: NIQMTQSPSSLSASVGDRVTITCRASQDIHRYLSWFQQKPGKVPKHLIYRHIRFVDGVPSRFSGSGSGTEFTLTISSLQPEDFATYYCLQYDEFPYTFGGGTKVEIK and give its recorded Phagocytosis EC50 (ug/mL), Donor 1.
## Output 12.8

## Input Consider the binder Ab495/Ab480 (LC Ab495, HC Ab480) anti-CD47 antibody (antibody, V domains shown, Framework variant of AbParental) VH: QMQLVQSGAEVKKPGSSVKVSCKASGFNIKDYYLHWVRQAPGKGLEWMGWIDPDQGDTEYAQKFQGRVTITRDRSTSTAYMELRSLRAEDTAVYYCNAAYGSSSYPMDYWGQGTLVTVSS VL: NIQMTQSPSSLSASVGDRVTITCKASQDIHRYLSWYQQKPGKAPKHLIYRANRLVSGVPSRFSGSGSGTEFTLTISSLQPEDFATYYCLQYDEFPYTFGGGTKVEIK and give its recorded Phagocytosis EC50 (ug/mL), Donor 1.
## Output 0.59
